Values were extracted from patent US12410208B2.

Molecular target: UniProtKB P17931
Sequence (P17931 whole entry): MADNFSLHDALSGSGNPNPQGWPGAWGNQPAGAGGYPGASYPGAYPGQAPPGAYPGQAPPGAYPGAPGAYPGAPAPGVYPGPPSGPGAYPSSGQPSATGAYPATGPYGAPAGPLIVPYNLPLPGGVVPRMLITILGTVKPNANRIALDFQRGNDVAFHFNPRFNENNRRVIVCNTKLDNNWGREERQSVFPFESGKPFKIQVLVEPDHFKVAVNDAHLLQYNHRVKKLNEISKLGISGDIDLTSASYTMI
Test: Competitive binding assay: biotinylated hGal-3 binding to microplate-adsorbed asialofetuin (ASF), spectrophotometric
Settings: Table 9; hGal-3; read-out: IC50 (Gal-3 inhibition)
quantity.kind: IC50 (nM)

Below, 2 molecules whose answers are already recorded.
[[record]]
molecule = "CCN(C(=O)C(S[C@@H]1O[C@H](CO)[C@H](O)[C@H](n2cc(-c3cc(F)c(F)c(F)c3)nn2)[C@H]1O)C1(O)CCOCC1)c1ccccc1 (some centres unmarked)"
observed_result = 90

[[record]]
molecule = "CN(C(=O)C(S[C@@H]1O[C@H](CO)[C@H](O)[C@H](n2cc(-c3cc(F)c(F)c(F)c3)nn2)[C@H]1O)C1(O)CCOCC1)c1ccccc1 (some centres unmarked)"
observed_result = 110


I. CN(C(=O)[C@@H](S[C@@H]1O[C@H](CO)[C@H](O)[C@H](n2cc(-c3cc(F)c(F)c(F)c3)nn2)[C@H]1O)C1(O)CCOCC1)c1cccnc1 [Example 2.41.234S.]
II. CN(C(=O)[C@H](S[C@@H]1O[C@H](CO)[C@H](O)[C@H](n2cc(-c3cc(F)c(F)c(F)c3)nn2)[C@H]1O)C1(O)CCOCC1)c1ccccc1 [Example 2.41.231R.]
III. CN(C(=O)[C@H](S[C@@H]1O[C@H](CO)[C@H](O)[C@H](n2cc(-c3cc(F)c(F)c(F)c3)nn2)[C@H]1O)C1(O)CCOCC1)c1cccnc1 [Example 2.41.234R]
Give the ascending ranking of the items by reported IC50. Answer by naming the labels in the order asked.
I, II, III
